In this section we review reported pEC50 values for a set of compounds.
- target: UniProt:Q5NUL3
- assay.summary: Measurement of Activity of GPR120 Agonist (Cell-Based Assay), Calcium 5 dye fluorescence
- cond: CHO-K1 cells expressing Ga16 and hGPR120
pEC50: −log10 of the molar value.

# compound, pEC50
records = [
    ("Cc1cc(OCC2CC2)nc(-c2cc(F)c(OCC3CC3C(=O)O)c(F)c2)n1 (centres unmarked)", "5.70 to 6.70"),
    ("CCCOc1cccc(-c2cc(F)c(OCCCC(=O)O)c(F)c2)c1OCCC", "> 6.70"),
    ("CC(CCCC(=O)O)c1c(F)cc(-c2cccc3c2OC2(CCCC2)O3)cc1F (centres unmarked)", "> 6.70"),
    ("O=C(O)CCCOc1c(F)cc(-c2cncc(OCC3CC3)n2)cc1F", "> 6.70"),
    ("O=C(O)CC1CCN(c2c(F)cc(-c3cncc(OCC4CC4)n3)cc2F)CC1", "> 6.70"),
    ("CN(CCCC(=O)O)c1c(F)cc(-c2cccc(OC3CCCC3)c2)cc1F", "> 6.70"),
    ("O=C(O)C1CC1COc1c(F)cc(-c2cncc(OCC3CC3)n2)cc1F (centres unmarked)", "5.70 to 6.70"),
    ("Cc1cc(OC2CCC2)nc(-c2cc(F)c(N(C)CCCC(=O)O)c(F)c2)n1", "> 6.70"),
    ("O=C(O)CCC1CCc2cc(-c3cccc(OC4CCC4)n3)ccc2S1 (centres unmarked)", "> 6.70"),
    ("COc1ccc(Oc2ccnc(-c3cc(F)c(N4CCC(CC(=O)O)CC4)c(F)c3)n2)cc1", "5.70 to 6.70"),
    ("CC(C)Sc1cccc(-c2cc(F)c(NCCCCC(=O)O)c(F)c2)n1", "5.70 to 6.70"),
    ("COc1ccc(-c2cc(F)c(OCCCC(=O)O)c(F)c2)nc1OC1CCC1", "> 6.70"),
    ("CC(C)Sc1cccc(-c2cc(F)c(N3CCC(CC(=O)O)CC3)c(F)c2)n1", "> 6.70"),
    ("CC(C)Sc1cccc(-c2ccc3c(c2)CCC(CCC(=O)O)O3)n1 (centres unmarked)", "> 6.70"),
    ("O=C(O)CCCC1(c2c(F)cc(-c3cccnc3OCC3CCC3)cc2F)CC1", "5.70 to 6.70"),
    ("O=C(O)CCC1CCc2cc(-c3cccc(OC4CCCC4)c3)ccc2O1 (centres unmarked)", "> 6.70"),
    ("Cc1cc(-c2cc(F)c(C(C)CCCC(=O)O)c(F)c2)nc(OC2CCC2)n1 (centres unmarked)", "> 6.70"),
    ("CN(CCCC(=O)O)c1ccc(-c2cccnc2SC2CCC2)cc1F", "> 6.70"),
    ("CC(C)COc1ccnc(-c2cc(F)c(N3CCC(CC(=O)O)CC3)c(F)c2)n1", "> 6.70"),
    ("CC(C)n1ccc2ccc(-c3cc(F)c(OCCCC(=O)O)c(F)c3)cc21", "> 6.70"),
    ("COCCCOc1cccc(-c2cc(F)c(N3CCC(CC(=O)O)C3)c(F)c2)n1 (centres unmarked)", "5.70 to 6.70"),
    ("CCCOc1cc(C)nc(-c2cc(F)c(N3CCC(CC(=O)O)C3)c(F)c2)n1 (centres unmarked)", "> 6.70"),
    ("O=C(O)CC1CCN(c2c(F)cc(-c3cccnc3SC3CCCC3)cc2F)CC1", "> 6.70"),
    ("O=C(O)CC1CCN(c2c(F)cc(-c3nccc(Oc4ccc(F)c(F)c4)n3)cc2F)CC1", "> 6.70"),
    ("CC(C)(C)Sc1cccc(-c2ccc3c(c2)CCC(CCC(=O)O)O3)n1 (centres unmarked)", "> 6.70"),
    ("COc1ccc(-c2ccc3c(c2)CCC(CCC(=O)O)S3)c2c1OC(C)(C)C2 (centres unmarked)", "5.70 to 6.70"),
    ("CC(C)Oc1cccc(-c2cc(F)c(N3CCC(CC(=O)O)C3)c(F)c2)n1 (centres unmarked)", "> 6.70"),
    ("O=C(O)CCCOc1c(F)cc(-c2cccc(OCC3CC3)c2)cc1F", "> 6.70"),
    ("O=C(O)CC1CCN(c2c(F)cc(-c3csc(OC4CCC4)n3)cc2F)C1 (centres unmarked)", "5.70 to 6.70"),
    ("O=C(O)CCCOc1c(F)cc(-c2cc(F)cc(OC3CCC3)c2)cc1Cl", "> 6.70"),
    ("O=C(O)CCC1CC1c1c(F)cc(-c2cccnc2OC2CCC2)cc1F (centres unmarked)", "> 6.70"),
    ("O=C(O)CCCOc1c(F)cc(-c2cccc(OC3CCC3)c2)cc1Cl", "> 6.70"),
    ("CC(C)Sc1ncccc1-c1cc(F)c(N2CC(CCC(=O)O)C2)c(F)c1", "5.70 to 6.70"),
    ("Oc1ccc(COc2c(F)cc(-c3cccnc3OC3CCCC3)cc2F)cn1", "4.70 to 5.70"),
    ("O=C(O)CCCC1(c2c(F)cc(-c3cccnc3SC3CCC3)cc2F)CC1", "5.70 to 6.70"),
]

====

- target: UniProt:Q5NUL3
- assay.summary: Measurement of Activity of GPR120 Agonist (Cell-Based Assay), Calcium 5 dye fluorescence
- cond: CHO-K1 cells expressing Ga16 and hGPR120
pEC50: −log10 of the molar value.
In this section we review reported pEC50 values for a set of compounds.

# compound, target, pEC50
records = [
    ("CCOc1csc(-c2cc(F)c(N3CCC(CC(=O)O)CC3)c(F)c2)n1", "UniProt:Q5NUL3", "5.70 to 6.70"),
    ("CCCSc1ncccc1-c1ccc(CCCc2noc(=O)[nH]2)cc1", "UniProt:Q5NUL3", "4.70 to 5.70"),
    ("CCCCOc1cncc(-c2cc(F)c(N3CCC(CC(=O)O)C3)c(F)c2)n1 (stereo not drawn)", "UniProt:Q5NUL3", "> 6.70"),
    ("O=C(O)CCCOc1c(F)cc(-c2csc(OCC3CC3)n2)cc1Cl", "UniProt:Q5NUL3", "> 6.70"),
    ("O=C(O)CCCCc1c(F)cc(-c2cccnc2OCC2CC2)cc1F", "UniProt:Q5NUL3", "> 6.70"),
    ("O=C(O)CCC1CC1c1c(F)cc(-c2cccc(OCC3CC3)n2)cc1F (stereo not drawn)", "UniProt:Q5NUL3", "> 6.70"),
    ("CC(C)CNc1cncc(-c2cc(F)c(N3CCC(CC(=O)O)CC3)c(F)c2)n1", "UniProt:Q5NUL3", "5.70 to 6.70"),
    ("CN(CCCC(=O)O)c1c(F)cc(-c2cccnc2OC2CCC2)cc1F", "UniProt:Q5NUL3", "> 6.70"),
    ("Cc1nsc(OC2CCC2)c1-c1cc(F)c(N2CCC(CC(=O)O)CC2)c(F)c1", "UniProt:Q5NUL3", "5.70 to 6.70"),
    ("CC(C)(CCCC(=O)O)c1ccc(-c2cccnc2OC2CCCC2)cc1", "UniProt:Q5NUL3", "> 6.70"),
    ("CN(CCCC(=O)O)c1c(F)cc(-c2cccc3c2OC2(CCCC2)C3)cc1F", "UniProt:Q5NUL3", "> 6.70"),
    ("O=C(O)CCCCc1ccc(-c2cccnc2OCC2CCC2)cc1F", "UniProt:Q5NUL3", "> 6.70"),
    ("O=C(O)CCCOc1c(F)cc(-c2ccc(F)c(OCC3CC3)c2)cc1F", "UniProt:Q5NUL3", "> 6.70"),
    ("O=C(O)CC1CCN(c2c(F)cc(-c3nc(OCC4CC4)cs3)cc2F)CC1", "UniProt:Q5NUL3", "> 6.70"),
    ("CN(CCCC(=O)O)c1c(F)cc(-c2csc(OC3CCC3)n2)cc1F", "UniProt:Q5NUL3", "> 6.70"),
    ("CCCOc1ncccc1-c1cc(F)c(N2CCC(CC(=O)O)CC2)c(F)c1", "UniProt:Q5NUL3", "5.70 to 6.70"),
    ("CC(C)CNc1cncc(-c2cc(F)c(N3CCC(CC(=O)O)C3)c(F)c2)n1 (stereo not drawn)", "UniProt:Q5NUL3", "5.70 to 6.70"),
    ("Cc1nc(COCC2CC2)c(-c2cc(F)c(OCCCC(=O)O)c(F)c2)s1", "UniProt:Q5NUL3", "4.70 to 5.70"),
]

====

- target: hGPR120 (Homo sapiens)
- Sequence (Q5NUL3 whole entry): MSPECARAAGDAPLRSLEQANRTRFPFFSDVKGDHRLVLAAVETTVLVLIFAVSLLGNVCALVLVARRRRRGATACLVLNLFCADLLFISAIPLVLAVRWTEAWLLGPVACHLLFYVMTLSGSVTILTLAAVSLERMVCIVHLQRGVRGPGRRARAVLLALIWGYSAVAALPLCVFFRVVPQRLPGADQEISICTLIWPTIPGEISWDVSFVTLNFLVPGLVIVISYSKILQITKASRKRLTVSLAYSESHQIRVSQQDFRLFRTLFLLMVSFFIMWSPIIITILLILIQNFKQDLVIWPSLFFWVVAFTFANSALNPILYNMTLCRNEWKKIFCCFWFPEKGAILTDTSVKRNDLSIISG
- assay.summary: Measurement of Activity of GPR120 Agonist (Cell-Based Assay), Calcium 5 dye fluorescence
- cond: CHO-K1 cells expressing Ga16 and hGPR120
pEC50: −log10 of the molar value.
experimental.readout: pEC50

# compound, reading
records = [
    ("COc1cncc(-c2cc(F)c(N3CCC(CC(=O)O)C3)c(F)c2)n1 (stereo not shown)", "5.70 to 6.70"),
    ("COc1ccc(-c2cc(F)c(N3CC(CC(=O)O)C3)c(F)c2)c2c1OC(C)(C)C2", "4.70 to 5.70"),
    ("O=C(O)CCCOc1c(F)cc(-c2cccc3c2OC(F)(F)O3)cc1F", "> 6.70"),
    ("O=C(O)CCCOc1c(F)cc(-c2cc(OC3CCC3)cc(Cl)n2)cc1Cl", "> 6.70"),
    ("CC(CCCC(=O)O)c1c(F)cc(-c2cccnc2OCC2CC2)cc1F (stereo not shown)", "> 6.70"),
    ("O=C(O)CCC1CCc2cc(-c3cccnc3SC3CCCC3)ccc2S1 (stereo not shown)", "> 6.70"),
    ("O=C(O)CCCCc1ccc(-c2cccc(SC3CCCC3)n2)cc1", "> 6.70"),
    ("O=C(O)CC1CCN(c2c(F)cc(-c3cncc(OC4CCC4)n3)cc2F)C1 (stereo not shown)", "> 6.70"),
    ("O=C(O)CCCOc1ccc(-c2cccnc2SC2CCCC2)cc1F", "> 6.70"),
    ("O=C(O)CC1CCN(c2c(F)cc(-c3ccc(Cl)c(OC4CCC4)n3)cc2F)CC1", "5.70 to 6.70"),
    ("Oc1cc(CSc2c(F)cc(-c3cccnc3OC3CCCC3)cc2F)on1", "> 6.70"),
    ("O=C(O)CCCCc1ccc(-c2cccnc2OC2CCCC2)cc1F", "> 6.70"),
    ("CC(CCCC(=O)O)c1c(F)cc(-c2ccccc2NC2CCCC2)cc1F (racemic)", "> 6.70"),
    ("CC(C)Sc1ncccc1-c1ccc2c(c1)CCC(CCC(=O)O)O2 (stereo not shown)", "> 6.70"),
    ("CC(C)Oc1ncccc1-c1cc(F)c(N(C)CCCC(=O)O)c(F)c1", "5.70 to 6.70"),
    ("O=C(O)CC1CCN(c2c(F)cc(-c3cncc(OCC4CC4)n3)cc2F)C1 (stereo not shown)", "> 6.70"),
    ("Cc1nsc(OC2CCC2)c1-c1cc(F)c(N2CCC(CC(=O)O)C2)c(F)c1 (stereo not shown)", "> 6.70"),
    ("O=C(O)CC1CCN(c2c(F)cc(-c3cccc(OCC4CCC4)n3)cc2F)C1 (stereo not shown)", "5.70 to 6.70"),
    ("Cc1cc(OC2CCC2)nc(-c2cc(F)c(N3CCC(CC(=O)O)C3)c(F)c2)c1 (stereo not shown)", "5.70 to 6.70"),
    ("CC(CCCC(=O)O)c1c(F)cc(-c2cc(F)cc(OC3CCC3)c2)cc1F (stereo not shown)", "> 6.70"),
    ("Oc1cc(CCc2c(F)cc(-c3cccnc3OC3CCCC3)cc2F)on1", "> 6.70"),
    ("O=C(O)CC1CCN(c2c(F)cc(-c3nc(Oc4ccc(F)cc4)cc(C(F)(F)F)n3)cc2F)CC1", "4.70 to 5.70"),
    ("Cc1cc(OC2CCC2)nc(-c2cc(F)c(C(C)CCCC(=O)O)c(F)c2)n1 (stereo not shown)", "> 6.70"),
    ("O=C(O)C1CC1COc1c(F)cc(-c2cccc(OCC3CC3)n2)cc1Cl (stereo not shown)", "5.70 to 6.70"),
    ("O=C(O)CCCOc1c(F)cc(-n2ccc3ccc(Cl)cc32)cc1F", "> 6.70"),
    ("CC(C)Sc1cccc(-c2ccc3c(c2)CCC(CCC(=O)O)S3)n1 (stereo not shown)", "> 6.70"),
    ("CC1(C)Cc2cc(Cl)cc(-c3cc(F)c(SCCCC(=O)O)c(F)c3)c2O1", "5.70 to 6.70"),
    ("CCOc1cncc(-c2cc(F)c(N3CCC(CC(=O)O)C3)c(F)c2)n1 (stereo not shown)", "> 6.70"),
]
